These entries and their values trace back to paper PMC9791066.

- target_or_test_system: EfaUPPS (R42A) (Enterococcus faecalis, UniProt Q831K9, R48A)
- Construct: His tag
- Sequence (Q831K9 whole entry R48A): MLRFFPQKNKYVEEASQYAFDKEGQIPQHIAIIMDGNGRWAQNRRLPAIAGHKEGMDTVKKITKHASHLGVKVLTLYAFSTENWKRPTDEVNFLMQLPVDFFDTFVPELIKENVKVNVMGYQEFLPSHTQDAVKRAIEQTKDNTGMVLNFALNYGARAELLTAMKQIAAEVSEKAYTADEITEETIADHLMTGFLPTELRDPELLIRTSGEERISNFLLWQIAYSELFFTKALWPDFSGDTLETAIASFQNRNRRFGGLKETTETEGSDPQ
- test_method_notes: Microscale thermophoresis binding assay, EfaUPPS R42A
- Description: To characterize the binding affinity between EfaUPPS and GA or NGA, the MST binding assay was performed as previously described ([Lin et al., 2020]). […] The change of molecular thermophoresis was monitored by standardized fluorescence value Fnorm, and the binding curve was plotted according to the values of Fnorm. The formed complex affinity was analyzed by MO Affinity Analysis software version 2.3. […]
quantity_name: Kd (µM)

compound	quantity_name	test_value
CC(C)=CCC[C@]1(C)C=Cc2c(O)c3c(c(CC=C(C)C)c2O1)O[C@]12C(=C[C@@H]4C[C@H]1C(C)(C)O[C@@]2(C/C=C(/C)C(=O)O)C4=O)C3=O	Kd	40.5
CC(C)=CCC[C@]1(C)CC(O)c2c(O)c3c(c(CC=C(C)C)c2O1)O[C@]12C(=C[C@@H]4C[C@H]1C(C)(C)O[C@@]2(C/C=C(/C)C(=O)O)C4=O)C3=O (some centres unmarked)	Kd	62.9
